Target Under Test: MASP-2 (CCP1-CCP2-SP) (Homo sapiens (Human), UniProt O00187)
Sequence (O00187 445-686): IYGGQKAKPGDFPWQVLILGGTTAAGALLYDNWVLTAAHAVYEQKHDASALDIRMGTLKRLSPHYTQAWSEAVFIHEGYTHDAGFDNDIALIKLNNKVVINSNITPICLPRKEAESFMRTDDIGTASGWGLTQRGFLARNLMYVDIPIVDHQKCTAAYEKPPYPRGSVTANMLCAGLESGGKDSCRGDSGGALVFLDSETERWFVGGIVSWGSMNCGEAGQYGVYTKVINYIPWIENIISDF
Procedure Summary: biochemical
Type: biochemical
Condition Label: selectivity for MASP-2 inhibition versus thrombin
Counter-ions that a name gives are not always drawn.
Reported Property: MASP-2 vs. thrombin selectivity

1. C[C@H](NC(=O)[C@H]1C[C@@H](Cc2ccccc2)CN1)C(=O)NCc1ccc(C(=N)N)cc1 = * (≥1.0 to <5.0-fold)
2. C[C@H](NC(=O)[C@H]1C[C@H](c2ccccc2)CN1)C(=O)NCc1cc(Cl)ccc1O = ** (≥5.0 to <25-fold)
3. C[C@H](NC(=O)[C@H]1C[C@@H](c2cccc(CN)c2)CN1)C(=O)NCc1ccc(C(=N)N)cc1 = ** (≥5.0 to <25-fold)
4. Cc1nc(N)ccc1CNC(=O)[C@H](C)NC(=O)[C@H]1CN(Cc2ccccc2)CCN1 [compound 1347, Dihydrochloride] = *** (≥25 to <100-fold)
5. Cc1nc(N)ccc1CNC(=O)[C@H](C)NC(=O)[C@H]1C[C@H](Cc2cc(Cl)cc(Cl)c2)CN1 [compound 1435, Dihydrochloride] = **** (≥100-fold)

In: Request - read-out MASP-2 vs. thrombin selectivity | tested on MASP-2 (CCP1-CCP2-SP) (Homo sapiens (Human), UniProt O00187) | molecule Cc1nc(N)ccc1CNC(=O)[C@H](C)NC(=O)[C@H]1C[C@H](Cc2nc3cc(Cl)ccc3s2)CN1 [compound 1460, Di-trifluoroacetate salt]
Out: **** (≥100-fold)

In: How about this molecule: Cc1nc(N)ccc1CNC(=O)[C@H](C)NC(=O)[C@H]1C[C@@H](Cc2ccccc2)CN1
Out: *** (≥25 to <100-fold)

In: Could you do the same for Cc1nc(N)ccc1CNC(=O)[C@@H]1CCN1C(=O)[C@H]1C[C@H](Cc2ccc(Br)cc2)CN1 [compound 1438, Di-trifluoroacetate salt] , please?
Out: ** (≥5.0 to <25-fold)

In: Do the same for C[C@H](NC(=O)[C@H]1C[C@H](Cc2ccc(C3CCC3)cc2)CN1)C(=O)NCc1cnc2[nH]cc(Cl)c2c1 [compound 1378, Di-trifluoroacetate salt] please
Out: * (≥1.0 to <5.0-fold)

In: What do you have for Cc1nc(N)ccc1CNC(=O)[C@H](C)NC(=O)[C@H]1C[C@H](Cc2cccc(C#N)c2)CN1 [compound 1429, Di-trifluoroacetate salt] ?
Out: **** (≥100-fold)

In: Request: C[C@H](NC(=O)[C@H](N)CCc1ccccc1)C(=O)NCc1cc(Cl)ccc1C#N [compound 1313, Trifluoroacetate salt]
Out: * (≥1.0 to <5.0-fold)

In: Would you mind doing C[C@H](NC(=O)[C@H]1C[C@H](c2ccccc2)CN1)C(=O)NCc1cc(Br)cc2cn[nH]c12 as well?
Out: ** (≥5.0 to <25-fold)

----------
Below: a set of entries, each annotated with reported pKi.
Target Under Test: MASP-2 (CCP1-CCP2-SP) (Homo sapiens (Human), UniProt O00187)
Procedure Summary: biochemical
Assay type: biochemical
Condition Label: read-out: MASP-2 Ki
pKi: −log10 of the molar value. Counter-ions that a name gives are not always drawn.

1) Cc1nc(N)ccc1CNC(=O)[C@H](C)NC(=O)[C@H]1C[C@H](Cc2ccc(C#N)cc2)CN1 [compound 1428, Di-trifluoroacetate salt] = > 6.30
2) Cc1nc(N)ccc1CNC(=O)[C@H](C)NC(=O)[C@H]1CN(c2cccc3ccccc23)CCN1 [compound 1309, Dihydrochloride] = > 6.30
3) C[C@H](NC(=O)[C@@H](CCc1ccccc1)NCc1ccc2cc(O)ccc2c1)C(=O)NCc1ccc(C(=N)N)cc1 = > 6.30
4) Cc1nc(N)ccc1CNC(=O)[C@H](C)NC(=O)[C@H]1CN(Cc2ccccc2)CCN1 [compound 1347, Dihydrochloride] = > 6.30
5) CCN1CC[C@H](c2ccccc2)C[C@@H]1C(=O)N[C@@H](C)C(=O)NCc1ccc(N)nc1C = > 6.30
6) Cc1nc(N)ccc1CNC(=O)[C@H](C)NC(=O)[C@H]1C[C@H](Cc2ccc(Cc3ccccc3)cc2)CN1 [compound 1427, di-trifluoroacetate salt] = > 6.30

In: Entry under review: Cc1nc(N)ccc1CNC(=O)[C@H](C)NC(=O)[C@H]1C[C@@H](CCc2ccccc2)CN1 [compound 1322, Dihydrochloride] . Reported pKi?
Out: > 6.30

In: Entry to check: Cc1nc(N)ccc1CNC(=O)[C@H](C)NC(=O)[C@H]1C[C@H](Cc2cccc(Cl)c2)CN1 [compound 1328, Dihydrochloride]
Out: > 6.30

In: Let us now turn to Cc1nc(N)ccc1CNC(=O)[C@H](CCC(N)=O)NC(=O)[C@H]1C[C@H](Cc2ccccc2)CN1 [compound 1382, Di-trifluoroacetate salt]
Out: > 6.30
